Where do these numbers come from? They come from patent US9850283B2.

For each entry below, report its IC50 value.
# system_under_test: Human PD-L1/PD-1 (Homo sapiens, UniProt Q9NZQ7)
# Construct: made in house; host or cells: HEK293T
# Sequence (Q9NZQ7 with tags, fused parts or gaps): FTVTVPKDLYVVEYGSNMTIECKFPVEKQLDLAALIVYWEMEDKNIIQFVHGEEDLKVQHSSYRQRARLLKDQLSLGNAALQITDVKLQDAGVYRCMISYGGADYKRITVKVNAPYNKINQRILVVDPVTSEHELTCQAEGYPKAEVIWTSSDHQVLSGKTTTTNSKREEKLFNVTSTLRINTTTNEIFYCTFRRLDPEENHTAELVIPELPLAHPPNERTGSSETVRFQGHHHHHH
# assay_info: HTRF PD-1-Ig/PD-L1-His binding assay (human PD-L1)
# condition_label: cluster symbol; read-out: HTRF IC50 cluster
Positions of bridges follow the written chain, without caps; N, C: chain ends. Non-standard residues stand in square brackets, D forms with d. Residues, ends and D or L forms follow the SMILES beside them. Bip = N[C@@H](Cc1ccc(-c2ccccc2)cc1)C(=O)O; Hyp = O=C(O)[C@@H]1C[C@@H](O)CN1; NMeF = CN[C@@H](Cc1ccccc1)C(=O)O; NMeNle = CCCC[C@H](NC)C(=O)O; NMeA = CN[C@@H](C)C(=O)O; Orn = NCCC[C@H](N)C(=O)O; Dap = NC[C@H](N)C(=O)O; Sar = CNCC(=O)O

Prompt: Dear colleague, please send me the reported IC50 for CCCC[C@H]1C(=O)N(C)[C@@H](CCCC)C(=O)N[C@@H](C)C(=O)N[C@H](C(N)=O)CSCC(=O)N[C@@H](Cc2ccc(O)cc2)C(=O)N(C)[C@@H](C)C(=O)N[C@@H](CCC(=O)O)C(=O)N2CCC[C@H]2C(=O)N[C@@H](CN)C(=O)N[C@@H](CC(C)C)C(=O)N2C[C@H](O)C[C@H]2C(=O)N[C@@H](Cc2c[nH]c3ccccc23)C(=O)N[C@@H](CO)C(=O)N[C@@H](Cc2c[nH]c3ccccc23)C(=O)N1C [Example 1172] ({CH2CO}-Y[NMeA]EP[Dap]L[Hyp]WSW[NMeNle][NMeNle]AC-NH2; thioether N-14) when you can.
Completion: 0.385 to 6.74 nM

Prompt: Return IC50 for the following compound: CCCC[C@H]1C(=O)N(C)[C@@H](CCCC)C(=O)N[C@@H](CCCNC(=N)N)C(=O)N[C@H](C(=O)NCC(N)=O)CSCC(=O)N[C@@H](Cc2ccc(O)cc2)C(=O)N(C)[C@@H](C)C(=O)N[C@@H](CC(N)=O)C(=O)N2CCC[C@H]2C(=O)N[C@@H](CN)C(=O)N[C@@H](CCC(N)=O)C(=O)N2CCC[C@H]2C(=O)N[C@@H](Cc2c[nH]c3ccccc23)C(=O)N[C@@H](CO)C(=O)N[C@@H](Cc2c[nH]c3ccccc23)C(=O)N1C [Example 6021] ({CH2CO}-Y[NMeA]NP[Dap]QPWSW[NMeNle][NMeNle]RCG-NH2; thioether N-14)
Completion: 0.385 to 6.74 nM

Prompt: Supply IC50 value. Item: CCCC[C@H]1C(=O)N(C)CC(=O)N[C@@H](CC(N)=O)C(=O)N[C@@H](C(C)C)C(=O)N(C)[C@@H](Cc2ccccc2)C(=O)N[C@@H](Cc2ccc(O)cc2)C(=O)N(C)CC(=O)N[C@@H](Cc2c[nH]c3ccccc23)C(=O)N[C@@H](Cc2ccc(O)cc2)C(=O)N[C@@H](CCCN)C(=O)N[C@H](C(=O)NCC(N)=O)CSCC(=O)N[C@@H](Cc2ccccc2)C(=O)N[C@@H](Cc2ccc(-c3ccccc3)cc2)C(=O)N1C [Example 3611] ({CH2CO}-F[Bip][NMeNle][Sar]NV[NMeF]Y[Sar]WY[Orn]CG-NH2; thioether N-13)
Completion: > 30.5 nM

Prompt: For CCCC[C@H]1C(=O)N(C)[C@@H](CCCC)C(=O)N[C@@H](Cc2ccncc2)C(=O)N[C@H](C(=O)NCC(N)=O)CSCC(=O)N[C@@H](Cc2ccc(O)cc2)C(=O)N(C)[C@@H](C)C(=O)N[C@@H](CC(N)=O)C(=O)N2CCC[C@H]2C(=O)N[C@@H](Cc2cnc[nH]2)C(=O)N[C@@H](CC(C)C)C(=O)N2C[C@H](O)C[C@H]2C(=O)N[C@@H](Cc2c[nH]c3ccccc23)C(=O)N[C@@H](CO)C(=O)N[C@@H](Cc2c[nH]c3ccccc23)C(=O)N1C [Example 7031] , write its IC50.
Completion: 0.385 to 6.74 nM
